The values you see were collected from the supplement of paper PMC11061612.

# Tested on: PANC-08-13 (Pancreatic Carcinoma)
# assay.comment: combination Emax (second highest fraction inhibited in the dose matrix, 72 h); higher = more inhibition; extreme values may be limits of the assay
measurement.label: combination Emax
Numbers only.

Illustrative cases are given below, each with its answer.
>>> assay_value("CC1(C)CCC(CN2CCN(c3ccc(C(=O)NS(=O)(=O)c4ccc(NCC5CCOCC5)c([N+](=O)[O-])c4)c(Oc4cnc5[nH]ccc5c4)c3)CC2)=C(c2ccc(Cl)cc2)C1 [Venetoclax] + C=CCn1c(=O)c2cnc(Nc3ccc(N4CCN(C)CC4)cc3)nc2n1-c1cccc(C(C)(C)O)n1 [AZD1775] (first compound max 1 µM, partner max 1 µM)")
0.328
>>> assay_value("COc1cccc(OCCCN)c1-c1cc(Nc2cnc(C#N)cn2)n[nH]1 [Prexasertib] + O=C(c1cc(Cc2n[nH]c(=O)c3ccccc23)ccc1F)N1CCN(C(=O)C2CC2)CC1 [Olaparib] (first compound max 1 µM, 7x7, partner max 10 µM)")
0.536

Next, consider the following molecule.
Query :: Look up combination Emax for this molecule: CN(C)CCCOc1ccc(-c2ccc3ncc4c(c3c2)n(C2CCOCC2)c(=O)n4C)cn1 [AZD0156] + CCN(CCO)CCCOc1ccc2c(Nc3cc(CC(=O)Nc4cccc(F)c4)[nH]n3)ncnc2c1 [AZD2811] (first compound max 1 µM, 7x7, partner max 1 µM)
Result :: 0.0865
